All figures here come from the Human Domainome abundance scans (Beltran et al. 2025).

B1: Ankyrin repeat and SOCS box protein 14, residues 532 to 572; numbered along this chain, A6NK59 (parent)
chain: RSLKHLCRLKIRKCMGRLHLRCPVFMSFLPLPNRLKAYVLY

variants of: B1; assay: abundance fitness (aPCA) (normalised: wild type 0, dead -1); higher = more abundant; growth selection in yeast, the domain comes from the species named; details: Homo sapiens
Response field class: string, computed from recorded abundance fitness by ranges LOW = under -0.2, MEDIUM = from -0.2 up to 0.07, HIGH = 0.07 and over

variant-descriptor: N33K
label-value: LOW
--
variant-descriptor: A37R
label-value: MEDIUM

Data request: Please classify: C14V
Data returned: HIGH

Data request: Please classify: S27Y
Data returned: LOW

Data request: Please classify: K10Y
Data returned: HIGH

Data request: Please classify: P23T
Data returned: HIGH

Data request: Please classify: R21D
Data returned: MEDIUM
